Measured values drawn from patent US6403626B1 for this set.

Ki listing for selected compounds.
target: α1A Human Adrenergic Receptor (Homo sapiens, UniProt P25100); construct: expressed in transfected cells; host or cells: LM(tk-) cells; assay: Equilibrium competition binding, [3H] prazosin, membranes of transfected LM(tk-) cells
Sequence (P25100 whole entry): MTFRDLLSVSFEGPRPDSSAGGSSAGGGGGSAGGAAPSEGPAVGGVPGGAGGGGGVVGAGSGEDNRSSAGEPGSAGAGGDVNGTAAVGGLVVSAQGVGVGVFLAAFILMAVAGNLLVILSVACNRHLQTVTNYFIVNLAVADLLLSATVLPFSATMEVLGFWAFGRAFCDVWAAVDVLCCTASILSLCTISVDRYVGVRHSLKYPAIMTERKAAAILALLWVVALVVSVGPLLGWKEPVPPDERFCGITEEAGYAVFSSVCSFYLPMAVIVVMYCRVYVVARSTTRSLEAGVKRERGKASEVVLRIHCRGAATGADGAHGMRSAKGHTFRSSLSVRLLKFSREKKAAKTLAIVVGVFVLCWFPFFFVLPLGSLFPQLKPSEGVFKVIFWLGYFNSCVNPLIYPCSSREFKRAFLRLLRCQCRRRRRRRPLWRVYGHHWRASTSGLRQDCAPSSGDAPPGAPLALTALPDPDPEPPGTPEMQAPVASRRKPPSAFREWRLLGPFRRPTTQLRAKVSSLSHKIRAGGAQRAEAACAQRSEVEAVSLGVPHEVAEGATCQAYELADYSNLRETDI
Respond with the figure and its unit, in that order.

compound: CCCn1cnc2ccc(NC3=NCCN3)cc21 [Example 15]
experimental.target: α1A Human Adrenergic Receptor (Homo sapiens, UniProt P25100)
reported.value: 6.46 µM

compound: CCCCc1c(NC2=NCCN2)ccc2nc[nH]c12 [Example 8]
experimental.target: α1A Human Adrenergic Receptor (Homo sapiens, UniProt P25100)
reported.value: 0.676 µM

compound: CCCc1c(NC2=NCCN2)ccc2nc[nH]c12 [Example 7]
experimental.target: α1A Human Adrenergic Receptor (Homo sapiens, UniProt P25100)
reported.value: 0.269 µM

Enquiry: Tell me the measured Ki of CC(C)n1cnc2cc(NC3=NCCN3)ccc21 [Example 17] , please.
Return: 10.5 µM

Enquiry: Tell me the measured Ki of OCCn1cnc2ccc(NC3=NCCN3)c(Br)c21 [Example 39] , please.
Return: 1.58 µM

Enquiry: Tell me the measured Ki of CCCCc1cc(NC2=NCCN2)cc2[nH]cnc12 [Example 56] , please.
Return: 1.26 µM

Enquiry: Tell me the measured Ki of Cn1cnc2ccc(NC3=NCCN3)cc21 [Example 11] , please.
Return: 10 µM

Enquiry: Tell me the measured Ki of FC(F)(F)c1nc2ccc(NC3=NCCN3)c(Br)c2[nH]1 [Example 46] , please.
Return: 7.08 µM

Enquiry: Tell me the measured Ki of c1ccc(Cn2cnc3cc(NC4=NCCN4)ccc32)cc1 [Example 32] , please.
Return: 3.72 µM

Enquiry: Tell me the measured Ki of CC(C)n1cnc2ccc(NC3=NCCN3)c(Br)c21 [Example 21] , please.
Return: 0.741 µM

Enquiry: Tell me the measured Ki of Brc1c(NC2=NCCN2)ccc2ncn(C3CCCC3)c12 [Example 28] , please.
Return: 0.661 µM

Enquiry: Tell me the measured Ki of Brc1c(NC2=NCCN2)ccc2ncn(CC3CCCCC3)c12 [Example 31] , please.
Return: 0.257 µM
